// values below are reported logD
- measurement notes: Lipophilicity, logD of compound at pH 7.4 by shake-flask method
- Type: physicochemical
- run conditions: buffer
The answer should be a number; do not append a unit.

Determine from records and report logD for Cn1cc(-c2ccc3c(Cl)cn(CC(=O)Nc4ccccc4Cl)c3c2)cn1 4.6

Identify measured logD associated with COc1cc(NC(=O)Cn2cc(Cl)c3ccc(-c4cnn(C)c4)cc32)cc(OC)c1OC 4.2

Supply recorded logD for COc1cc(NC(=O)Cn2ccc3ccc(-c4cnn(C)c4)cc32)cc(OC)c1OC here. 3.5

Look up and state reported logD for COc1cc(NC(=O)Cn2cc(Cl)c3cc(F)c(-c4cn(C)nc4C)cc32)cc(OC)c1OC 4.8

Identify the reported logD for the following entry. COc1cc(NC(=O)Cn2ccc3ccc(-c4nnc(C)o4)cc32)cc(OC)c1OC 2.7

Return logD (reported value) for this compound: Cn1cc(-c2ccc3ccn(CC(=O)Nc4ccccc4Cl)c3c2)cn1 3.6
